Each recorded value in this set is attributed to ChEMBL document CHEMBL1129873.

Molecular target: Caspase-1 (Homo sapiens)
Sequence (P29466 whole entry): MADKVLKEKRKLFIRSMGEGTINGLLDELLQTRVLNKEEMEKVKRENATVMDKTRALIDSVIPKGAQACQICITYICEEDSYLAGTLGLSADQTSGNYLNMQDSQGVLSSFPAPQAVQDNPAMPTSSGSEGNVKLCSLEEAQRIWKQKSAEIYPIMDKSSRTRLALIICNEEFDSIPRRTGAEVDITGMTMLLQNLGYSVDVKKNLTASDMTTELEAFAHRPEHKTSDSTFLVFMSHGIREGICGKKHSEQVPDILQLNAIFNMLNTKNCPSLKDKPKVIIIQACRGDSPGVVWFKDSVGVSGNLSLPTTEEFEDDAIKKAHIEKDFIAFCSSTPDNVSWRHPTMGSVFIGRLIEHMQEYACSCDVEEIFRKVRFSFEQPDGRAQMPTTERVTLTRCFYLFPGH
Experiment: Reversible inhibition of recombinant human IL-1 beta converting enzyme.
Collected pKi values appear next to each entry.
Kindly note that pKi refers to -log10 of the concentration in mol/L and answer with the value alone.

CC(C(=O)N[C@@H](CC(=O)O)C(=O)COc1ccccc1)n1cccc(NC(=O)c2ccc3ccccc3c2)c1=O (stereo not given in full) | 7.85
CC(C)[C@H](NC(=O)c1ccc2ccccc2c1)C(=O)N1CCCC[C@H]1C(=O)NC(CC(=O)O)C(=O)COc1ccccc1 (stereo not given in full) | 9.82
CCCCCCc1ccc(NC(=O)c2cccc3ccccc23)c(=O)n1CC(=O)N[C@@H](CC(=O)O)C(=O)COc1ccccc1 | 7.40
Cc1ccc(NC(=O)OCc2ccccc2)c(=O)n1CC(=O)N[C@@H](CC(=O)O)C(=O)COc1ccccc1 | 6.23
O=C(O)C[C@H](NC(=O)Cn1c(-c2ccccc2)ccc(NC(=O)c2cccc3ccccc23)c1=O)C(=O)COc1ccccc1 | 7.60

Look up pKi: CC(C)[C@H](NC(=O)c1ccc2ccccc2c1)C(=O)N1CCC[C@H]1C(=O)NC(CC(=O)O)C(=O)COc1ccccc1 (stereo not given in full)
9.70

Look up pKi: CCC(C(=O)N[C@@H](CC(=O)O)C(=O)COc1ccccc1)n1cccc(NC(=O)c2cccc3ccccc23)c1=O (stereo not given in full)
8.66

Look up pKi: O=C(O)C[C@H](NC(=O)Cn1cccc(NC(=O)c2ccc3ccccc3c2)c1=O)C(=O)COc1ccccc1
7.35

Look up pKi: CCCC(C(=O)N[C@@H](CC(=O)O)C(=O)COc1ccccc1)n1cccc(NC(=O)c2cccc3ccccc23)c1=O (stereo not given in full)
8.74

Look up pKi: COCC(C(=O)N[C@@H](CC(=O)O)C(=O)COc1ccccc1)n1cccc(NC(=O)c2ccc3ccccc3c2)c1=O (stereo not given in full)
8.15

====

Target: Caspase-1 (Homo sapiens)
Sequence (P29466 whole entry): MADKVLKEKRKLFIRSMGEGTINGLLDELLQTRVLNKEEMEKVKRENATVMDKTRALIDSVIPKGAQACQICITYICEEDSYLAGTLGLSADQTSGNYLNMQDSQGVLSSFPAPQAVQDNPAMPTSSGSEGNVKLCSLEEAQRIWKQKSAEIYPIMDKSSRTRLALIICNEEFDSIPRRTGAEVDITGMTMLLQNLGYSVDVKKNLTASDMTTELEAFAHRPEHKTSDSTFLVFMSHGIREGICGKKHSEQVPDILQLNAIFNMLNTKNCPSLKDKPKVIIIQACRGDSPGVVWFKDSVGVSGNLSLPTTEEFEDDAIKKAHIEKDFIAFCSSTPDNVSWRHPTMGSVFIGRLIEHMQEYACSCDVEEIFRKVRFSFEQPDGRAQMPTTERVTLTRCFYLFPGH
Experiment: Reversible inhibition of recombinant human IL-1 beta converting enzyme.
Under this convention, T denotes Ki strictly below 40 nM and F denotes Ki at or above 40 nM.

CCCCC(C(=O)N[C@@H](CC(=O)O)C(=O)COc1ccccc1)n1cccc(NC(=O)c2cccc3ccccc23)c1=O (stereo partly drawn) | T
O=C(O)C[C@H](NC(=O)C(c1ccccc1)n1cccc(NC(=O)c2cccc3ccccc23)c1=O)C(=O)COc1ccccc1 (stereo partly drawn) | T
CCCC(C(=O)N[C@@H](CC(=O)O)C(=O)COc1ccccc1)n1c(-c2ccccc2)ccc(NC(=O)c2cccc3ccccc23)c1=O (stereo partly drawn) | F
CCCCc1ncc(NC(=O)c2cccc3ccccc23)c(=O)n1CC(=O)N[C@@H](CC(=O)O)C(=O)COc1ccccc1 | F

is_below(Ki, 40 nM) for O=C(O)C[C@H](NC(=O)C(c1ccccn1)n1cccc(NC(=O)c2ccc3ccccc3c2)c1=O)C(=O)COc1ccccc1 (stereo partly drawn) ?
T

is_below(Ki, 40 nM) for CC(C)C(C(=O)N[C@@H](CC(=O)O)C(=O)COc1ccccc1)n1cccc(NC(=O)c2cccc3ccccc23)c1=O (stereo partly drawn) ?
T

is_below(Ki, 40 nM) for Cc1ccc(NC(=O)c2cccc3ccccc23)c(=O)n1CC(=O)N[C@@H](CC(=O)O)C(=O)COc1ccccc1 ?
F

====

Collected Ki values appear next to each entry.
Target: UniProtKB P29466
Assay: Reversible inhibition of recombinant human IL-1 beta converting enzyme.
Report only the number, with the unit nM understood.

Below: 5 compounds and their reported Ki.
Cc1ccc(NC(=O)c2ccc3ccccc3c2)c(=O)n1CC(=O)N[C@@H](CC(=O)O)C(=O)COc1ccccc1 | 160
C=CCC(C(=O)N[C@@H](CC(=O)O)C(=O)COc1ccccc1)n1cccc(NC(=O)c2ccc3ccccc3c2)c1=O (some centres not stated) | 1.5
CCCCc1ccc(NC(=O)c2cccc3ccccc23)c(=O)n1CC(=O)N[C@@H](CC(=O)O)C(=O)COc1ccccc1 | 16
Cc1ccc(NC(=O)c2ccccc2)c(=O)n1CC(=O)N[C@@H](CC(=O)O)C(=O)COc1ccccc1 | 530
O=C(O)C[C@H](NC(=O)C(c1ccccc1)n1cccc(NC(=O)c2ccc3ccccc3c2)c1=O)C(=O)COc1ccccc1 (some centres not stated) | 1.3

Look up Ki: CC(=O)N[C@@H](Cc1ccc(O)cc1)C(=O)N[C@H](C(=O)N[C@@H](C)C(=O)N[C@@H](CC(=O)O)C(=O)COc1ccccc1)C(C)C
1.1

Look up Ki: O=C(O)C[C@H](NC(=O)Cn1c(Cc2ccccc2)ccc(NC(=O)c2cccc3ccccc23)c1=O)C(=O)COc1ccccc1
10

====

Target: Caspase-1 (Homo sapiens, UniProt P29466)
Sequence (P29466 whole entry): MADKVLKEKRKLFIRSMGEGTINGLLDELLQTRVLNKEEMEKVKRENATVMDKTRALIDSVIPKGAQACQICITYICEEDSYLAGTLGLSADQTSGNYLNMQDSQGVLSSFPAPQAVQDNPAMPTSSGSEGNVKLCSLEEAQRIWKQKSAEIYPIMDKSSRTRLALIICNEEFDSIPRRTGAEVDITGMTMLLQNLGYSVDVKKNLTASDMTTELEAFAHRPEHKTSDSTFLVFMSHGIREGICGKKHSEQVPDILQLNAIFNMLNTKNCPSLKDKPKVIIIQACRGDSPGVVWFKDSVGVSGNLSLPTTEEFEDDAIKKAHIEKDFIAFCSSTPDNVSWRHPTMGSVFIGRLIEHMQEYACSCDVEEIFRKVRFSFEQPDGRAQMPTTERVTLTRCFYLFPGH
Assay: Reversible inhibition of recombinant human IL-1 beta converting enzyme.
Collected Ki values appear next to each entry.
Report only the number, with the unit nM understood.

Below: 4 compounds and their reported Ki.
O=C(O)C[C@H](NC(=O)Cn1c(-c2ccccc2)ncc(NC(=O)c2cccc3ccccc23)c1=O)C(=O)COc1ccccc1 | 66
CC(C)[C@H](NC(=O)c1ccc2ccccc2c1)C(=O)N[C@@H](C)C(=O)NC(CC(=O)O)C(=O)COc1ccccc1 (some centres not stated) | 0.15
CCC(C(=O)N[C@@H](CC(=O)O)C(=O)COc1ccccc1)n1cccc(NC(=O)c2ccc3ccccc3c2)c1=O (some centres not stated) | 1.4
CCCC(C(=O)N[C@@H](CC(=O)O)C(=O)COc1ccccc1)n1c(C)ccc(NC(=O)c2ccc3ccccc3c2)c1=O (some centres not stated) | 2200

Look up Ki: CC(C(=O)N[C@@H](CC(=O)O)C(=O)COc1ccccc1)n1cccc(NC(=O)c2cccc3ccccc23)c1=O (some centres not stated)
7

Look up Ki: CCc1ccc(NC(=O)c2cccc3ccccc23)c(=O)n1CC(=O)N[C@@H](CC(=O)O)C(=O)COc1ccccc1
40

Look up Ki: CCCc1ccc(NC(=O)c2cccc3ccccc23)c(=O)n1CC(=O)N[C@@H](CC(=O)O)C(=O)COc1ccccc1
68
